Tested on: clinical antibiotic resistant isolates of MRSA
experiment: Checkerboard resistance breaking by SP-BIM 13
Format: cell-based, Staphylococcus aureus
experimental_context: MRSA strain 5872; with SP-BIM 13 at rescue concentration
measurement_type: MIC of antibiotic in combination (µg/mL)

# molecule, uom, numeric_readout
records = [
    ("C[C@H]1c2cccc(O)c2C(=O)C2=C(O)[C@]3(O)C(=O)C(C(N)=O)=C(O)[C@@H](N(C)C)[C@@H]3[C@@H](O)[C@@H]21 [Doxycycline, doxycycline]", "µg/mL", 4),
    ("CC[C@H]1OC(=O)[C@H](C)[C@@H](O[C@H]2C[C@@](C)(OC)[C@@H](O)[C@H](C)O2)[C@H](C)[C@@H](O[C@@H]2O[C@H](C)C[C@H](N(C)C)[C@H]2O)[C@](C)(O)C[C@@H](C)C(=O)[C@H](C)[C@@H](O)[C@]1(C)O [Erythromycin, erythromycin]", "µg/mL", 4),
    ("[H]/N=C(/N)N[C@H]1[C@H](O)[C@@H](O)[C@H](O[C@@H]2O[C@@H](C)[C@](O)(C=O)[C@H]2O[C@@H]2O[C@@H](CO)[C@H](O)[C@@H](O)[C@@H]2NC)[C@@H](N/C(N)=N\\[H])[C@@H]1O [Streptomycin, streptomycin]", "µg/mL", 0.5),
    ("CC1(C)S[C@@H]2[C@H](NC(=O)[C@H](N)c3ccccc3)C(=O)N2[C@H]1C(=O)O [Ampicillin, ampicillin]", "µg/mL", 0.5),
]
